System: U2OS
Assay: Multiplex assay against U2OS
Format: toxicity, cell-based
Settings: human, 48 h, 10 µM, compound concentration 10 uM, replicate 2
Strictly below 60% in Population Healthy Nuclei (%): condition met. Otherwise: condition not met.

• COc1ccc(NS(=O)(=O)c2sc3ccc(Cl)cc3c2C)cc1N1CCNCC1.Cl = condition met
• Nc1nc2c(c(N3CCNCC3)n1)CCC1=C2[C@@H]2CCCC[C@@H]2O1 = condition met
• O=C(O)c1ccc2cc(-c3ccc(O)c(C45CC6CC(CC(C6)C4)C5)c3)ccc2c1 = condition not met
• CC(C)N1CCC(C)(C)c2cc(C#Cc3ccc(C(=O)O)cc3)ccc21 = condition met
• CCCn1c(=O)c2[nH]c(C34CC5CC(CC3C5)C4)nc2n(CCC)c1=O = condition met
